Reported melting point is given for each of the following compounds.

Past entries and their recorded results:
| mol | measured metric | value observed |
| --- | --- | --- |
| Nc1cc(-c2ccc(I)cc2F)nc(C(=O)O)c1Cl | melting point | 208.4 to 210.2 °C |
| COC(=O)c1nc(-c2ccc(F)c(F)c2F)c(F)c(N)c1Cl | melting point | 147 to 148 °C |
| Nc1c(F)c(-c2ccc(OC(F)F)c(F)c2)nc(C(=O)O)c1Cl | melting point | 147 to 149 °C |

Kindly consider the entry below.
What does the record list as melting point for "C=Cc1c(N)nc(-c2ccc(I)cc2)nc1C(=O)OC" ?
142 to 144 °C
